# experimental protocol: Therapeutic index, ratio of IC50 for human MT2 cells to EC50 for HIV1 3B infected in human MT2 cells
# Format: cell-based
# test settings: read-out: Ratio IC50/EC50
This section presents compounds with their documented selectivity ratio values.
value type: selectivity ratio

[
  {
    "cpd smiles": "Cc1cc(=O)oc2c3c(ccc12)OC(C)(C)[C@H](OC(=O)[C@@]12CC[C@@](C)(C(=O)O1)C2(C)C)[C@@H]3OC(=O)[C@@]12CC[C@@](C)(C(=O)O1)C2(C)C",
    "value type": "selectivity ratio",
    "recorded value": 301
  },
  {
    "cpd smiles": "CCOc1c(C(C)=O)ccc2c1[C@@H](OC(=O)[C@@]13CC[C@@](C)(C(=O)O1)C3(C)C)[C@@H](OC(=O)[C@@]13CC[C@@](C)(C(=O)O1)C3(C)C)C(C)(C)O2",
    "value type": "selectivity ratio",
    "recorded value": 208
  }
]
